Biological target: human recombinant serotonin (5-Hydroxytryptamine) 5-HT2A receptor (Homo sapiens, UniProt P28223)
Construct: expressed in transfected cells; host or cells: CHO-K1 cells
Assay: Serotonin 5-HT2A radioligand binding ([3H]Ketanserin)
Conditions: compound at 1 μM; read-out: Serotonin (1 μM) 5-HT2A, percent inhibition of specific binding
Listed below: inhibition at 1 µM values for each entry.
Respond with the bare value in %.

Look up and report measured inhibition at 1 µM for this entry: CC1CCN(C(=O)Cn2c3c(c4cc(Cl)ccc42)CCN(C)CC3)CC1 [Compound No. 76]
52

Look up and report measured inhibition at 1 µM for this entry: Cc1ccc2c(c1)c1c(n2/C=C/c2ccc(F)cc2)CCN(C)CC1 [Compound No. 39]
98

Look up and report measured inhibition at 1 µM for this entry: CN1CCc2c(n(CCc3ccc(C(F)(F)F)nc3)c3ccc(Cl)cc23)CC1 [Compound No. 1]
98

Look up and report measured inhibition at 1 µM for this entry: Cc1cncc(CCn2c3c(c4cc(Cl)ccc42)CCN(C)CC3)c1 [Compound No. 3]
95

Look up and report measured inhibition at 1 µM for this entry: COc1ccc(/C=C/n2c3c(c4cc(Cl)ccc42)CCN(C)CC3)cc1OC [Compound No. 226]
92

---
Look up and report measured inhibition at 1 µM for this entry: CN1CCc2c(n(CCc3ccccc3F)c3ccccc23)CC1 [Compound No. 237]
99

Look up and report measured inhibition at 1 µM for this entry: Cc1ccc2c(c1)c1c(n2CC(O)c2cccnc2)CCN(C)CC1 (stereo not drawn) [Compound No. 19]
80

Look up and report measured inhibition at 1 µM for this entry: COc1ccc(C(O)Cn2c3c(c4cc(Cl)ccc42)CCN(C)CC3)c(F)c1 (stereo not drawn) [Compound No. 49]
97

Look up and report measured inhibition at 1 µM for this entry: Cc1ccc2c(c1)c1c(n2CCc2cncc(Cl)c2)CCN(C)CC1 [Compound No. 4]
93

Look up and report measured inhibition at 1 µM for this entry: C/C(=C\n1c2c(c3cc(Cl)ccc31)CCN(C)CC2)c1ccccc1Cl [Compound No. 245]
99

Look up and report measured inhibition at 1 µM for this entry: COc1ccc(/C=C/n2c3c(c4cc(C)ccc42)CCN(C)CC3)c(F)c1 [Compound No. 230]
97

Look up and report measured inhibition at 1 µM for this entry: Cc1ccc2c(c1)c1c(n2CC(=O)N2CCCC2)CCN(C)CC1 [Compound No. 45]
22

Look up and report measured inhibition at 1 µM for this entry: CN1CCc2c(n(CC(O)c3ccc(F)cc3)c3ccc(Cl)cc23)CC1 (stereo not drawn) [Compound No. 51]
97

Look up and report measured inhibition at 1 µM for this entry: C/C(=C\n1c2c(c3cc(Cl)ccc31)CCN(C)CC2)c1ccncc1 [Compound No. 248]
99

Look up and report measured inhibition at 1 µM for this entry: C=C(Cn1c2c(c3cc(Cl)ccc31)CCN(C)CC2)c1ccc(F)cc1 [Compound No. 82]
98

Look up and report measured inhibition at 1 µM for this entry: Cc1ccc2c(c1)c1c(n2CC(=O)NC2CCCCC2)CCN(C)CC1 [Compound No. 22]
-2

Look up and report measured inhibition at 1 µM for this entry: Cc1ccc2c(c1)c1c(n2CC(O)c2ccccc2)CCN(C)CC1 (stereo not drawn) [Compound No. 25]
97

Look up and report measured inhibition at 1 µM for this entry: COc1ccc(C(O)Cn2c3c(c4cc(C)ccc42)CCN(C)CC3)cc1OC (stereo not drawn) [Compound No. 227]
85

----------
Molecular target: human recombinant serotonin (5-Hydroxytryptamine) 5-HT2A receptor (Homo sapiens, UniProt P28223)
Construct: expressed in transfected cells; host or cells: CHO-K1 cells
Test: Serotonin 5-HT2A radioligand binding ([3H]Ketanserin)
Conditions: compound at 1 μM; read-out: Serotonin (1 μM) 5-HT2A, percent inhibition of specific binding
Listed below: inhibition at 1 µM values for each entry.
Respond with the bare value in %.

Below, each entry is followed by its recorded inhibition at 1 µM result.
Look up and report measured inhibition at 1 µM for this entry: "C/C(=C\n1c2c(c3cc(Cl)ccc31)CCN(C)CC2)c1ccccc1F"
98

Look up and report measured inhibition at 1 µM for this entry: "COc1ccc(/C=C/n2c3c(c4cc(C)ccc42)CCN(C)CC3)cc1F"
101

Look up and report measured inhibition at 1 µM for this entry: "CN1CCc2c(n(C#Cc3ccc(F)cc3)c3ccc(Cl)cc23)CC1"
100

---
Look up and report measured inhibition at 1 µM for this entry: COc1ccc(C(O)Cn2c3c(c4cc(Cl)ccc42)CCN(C)CC3)cc1F (stereo not shown)
100

Look up and report measured inhibition at 1 µM for this entry: "Cc1ccc2c(c1)c1c(n2CCc2ccccc2)CCN(C)CC1"
12

Look up and report measured inhibition at 1 µM for this entry: Cc1ccc(C(O)Cn2c3c(c4cc(C)ccc42)CCN(C)CC3)cc1 (stereo not shown)
99

Look up and report measured inhibition at 1 µM for this entry: "CN1CCc2c(n(CCc3ccc(Cl)cc3)c3ccc(Cl)cc23)CC1"
100

Look up and report measured inhibition at 1 µM for this entry: "C/C(=C\n1c2c(c3cc(C)ccc31)CCN(C)CC2)c1ccccc1F"
100

Look up and report measured inhibition at 1 µM for this entry: COc1ccc(C(O)Cn2c3c(c4cc(C)ccc42)CCN(C)CC3)c(F)c1 (stereo not shown)
98

Look up and report measured inhibition at 1 µM for this entry: "Cc1ccc2c(c1)c1c(n2CC(=O)Nc2ccc(F)cc2)CCN(C)CC1"
17

----------
Biological target: human recombinant dopamine D2L receptor (Homo sapiens)
Construct: expressed in transfected cells; host or cells: CHO cells
Sequence (P14416 whole entry): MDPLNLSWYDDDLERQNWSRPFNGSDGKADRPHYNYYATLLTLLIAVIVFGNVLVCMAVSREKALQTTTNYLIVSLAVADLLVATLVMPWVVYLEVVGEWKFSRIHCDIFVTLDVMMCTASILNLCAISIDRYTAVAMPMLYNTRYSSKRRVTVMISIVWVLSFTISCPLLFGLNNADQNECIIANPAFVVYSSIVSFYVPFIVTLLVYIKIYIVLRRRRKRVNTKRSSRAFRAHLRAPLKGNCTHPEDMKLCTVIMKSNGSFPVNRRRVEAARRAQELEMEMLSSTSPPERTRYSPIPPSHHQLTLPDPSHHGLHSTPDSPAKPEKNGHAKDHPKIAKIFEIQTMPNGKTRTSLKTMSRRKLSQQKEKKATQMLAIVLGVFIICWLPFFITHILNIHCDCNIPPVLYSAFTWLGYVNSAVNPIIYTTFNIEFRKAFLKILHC
Assay: Dopamine D2L radioligand binding ([3H]Spiperone)
Settings: compound at 1 μM; read-out: Dopamine (1 μM) D2L, percent inhibition of specific binding
Procedure: To evaluate in radioligand binding assays the activity of compounds of the invention, human recombinant dopamine D2L receptor expressed in Chinese hamster ovary (CHO) cells (Grandy, D. K. et al. Proc. Natl. Acad. Sci. USA. 86:9762, 1989; Hayes, G. et al., Mol. Endocrinol. 6:920, 1992) in a modified Tris-HCl buffer (50 mM Tris-HCl, pH 7.4, 1.4 mM Ascorbic Acid, 0.001% BSA, 150 mM NaCl) was used. Compounds of the invention were incubated with 0.16 nM [^3H]Spiperone for 120 min. at 25° C. […]
Listed below: inhibition at 1 µM values for each entry.
Remember to follow the number with its unit.

Below, each entry is followed by its recorded inhibition at 1 µM result.
Under human recombinant dopamine D2L receptor (Homo sapiens), report inhibition at 1 µM for Cc1ccc2c(c1)c1c(n2CC(=O)N2CCOCC2)CCN(C)CC1 [Compound No. 38]
21%

Under human recombinant dopamine D2L receptor (Homo sapiens), report inhibition at 1 µM for Cc1ccc(C(O)Cn2c3c(c4cc(Cl)ccc42)CCN(C)CC3)cc1 (stereo not drawn) [Compound No. 26]
65%

Under human recombinant dopamine D2L receptor (Homo sapiens), report inhibition at 1 µM for CN1CCc2c(n(C#Cc3ccc(Cl)cc3)c3ccc(Cl)cc23)CC1 [Compound No. 282]
1%

Under human recombinant dopamine D2L receptor (Homo sapiens), report inhibition at 1 µM for C/C(=C\n1c2c(c3cc(C)ccc31)CCN(C)CC2)c1cccc(F)c1 [Compound No. 252]
19%

Under human recombinant dopamine D2L receptor (Homo sapiens), report inhibition at 1 µM for CN1CCc2c(n(CC(C)(O)c3ccc(F)cc3)c3ccc(Cl)cc23)CC1 (stereo not drawn) [Compound No. 13]
38%

Under human recombinant dopamine D2L receptor (Homo sapiens), report inhibition at 1 µM for COc1ccc(C(O)Cn2c3c(c4cc(Cl)ccc42)CCN(C)CC3)cc1 (stereo not drawn) [Compound No. 47]
45%

---
Under human recombinant dopamine D2L receptor (Homo sapiens), report inhibition at 1 µM for CC(C)NC(=O)Cn1c2c(c3cc(Cl)ccc31)CCN(C)CC2 [Compound No. 31]
4%

Under human recombinant dopamine D2L receptor (Homo sapiens), report inhibition at 1 µM for Cc1ccc2c(c1)c1c(n2CCc2ccc(Cl)cc2)CCN(C)CC1 [Compound No. 28]
67%

Under human recombinant dopamine D2L receptor (Homo sapiens), report inhibition at 1 µM for C/C(=C\n1c2c(c3cc(Cl)ccc31)CCN(C)CC2)c1cccc(F)c1 [Compound No. 250]
15%

Under human recombinant dopamine D2L receptor (Homo sapiens), report inhibition at 1 µM for Cc1ccc2c(c1)c1c(n2CC(O)c2ccc(Cl)cc2)CCN(C)CC1 (stereo not drawn) [Compound No. 17]
34%

Under human recombinant dopamine D2L receptor (Homo sapiens), report inhibition at 1 µM for COc1ccc(/C=C/n2c3c(c4cc(C)ccc42)CCN(C)CC3)cc1F [Compound No. 180]
62%

----------
Target: human recombinant histamine H2 receptor (Homo sapiens, UniProt P25021)
Construct: expressed in transfected cells; host or cells: CHO-K1 cells
Sequence (P25021 whole entry): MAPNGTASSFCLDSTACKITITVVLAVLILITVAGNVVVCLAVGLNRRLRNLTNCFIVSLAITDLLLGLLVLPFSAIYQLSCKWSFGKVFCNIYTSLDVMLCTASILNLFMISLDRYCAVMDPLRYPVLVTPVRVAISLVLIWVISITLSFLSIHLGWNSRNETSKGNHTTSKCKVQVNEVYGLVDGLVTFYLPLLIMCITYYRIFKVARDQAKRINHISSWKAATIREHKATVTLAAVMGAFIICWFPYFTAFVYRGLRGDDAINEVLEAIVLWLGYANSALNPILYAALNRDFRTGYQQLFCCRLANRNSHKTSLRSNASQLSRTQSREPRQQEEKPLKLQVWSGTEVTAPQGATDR
Assay: Histamine H2 radioligand binding ([125I]Aminopotentidine)
Settings: compound at 1 μM; read-out: Histamine Binding (1 μM) H2, percent inhibition of specific binding
Classification scheme (inhibition at 1 µM): small value = under 20%, mid value = from 20% up to 90%, large value = 90% and over

Category of "C/C(=C\n1c2c(c3cc(Cl)ccc31)CCN(C)CC2)c1ccncc1" :
mid value

Category of "CN1CCc2c(n(/C=C/c3ccccc3)c3ccc(Cl)cc23)CC1" :
large value

Category of Cc1ccc2c(c1)c1c(n2CC(O)c2ccccc2F)CCN(C)CC1 (centres unmarked) :
mid value

Category of "Cc1ccc2c(c1)c1c(n2CC(=O)Nc2ccccc2)CCN(C)CC1" :
small value

Category of "Cc1ccc2c(c1)c1c(n2CC(=O)OC2CCCC2)CCN(C)CC1" :
small value

---
Category of "C/C(=C\n1c2c(c3cc(C)ccc31)CCN(C)CC2)c1ccncc1" :
mid value

Category of "C/C(=C/n1c2c(c3cc(Cl)ccc31)CCN(C)CC2)c1ccccc1Cl" :
large value

Category of "Cc1ccc2c(c1)c1c(n2CCc2ccccc2Cl)CCN(C)CC1" :
small value

Category of Cc1ccc2c(c1)c1c(n2CC(O)c2ccc(F)cc2F)CCN(C)CC1 (centres unmarked) :
mid value

Category of "Cc1ccc2c(c1)c1c(n2CCc2ccc(C(=O)O)nc2)CCN(C)CC1" :
small value

Category of "C/C(=C\n1c2c(c3cc(Cl)ccc31)CCN(C)CC2)c1ccccc1F" :
mid value
